system: SF-539; test: Cytotoxicity against human SF539 cells; format: functional
endpoint_name: GI50

Query: I have this compound here, CSc1ccc2c(c1)C(=O)c1c-2n(CCCN)c(=O)c2cc([N+](=O)[O-])ccc12 , and I need its recorded GI50.
Response: < 10 nM

Query: Entry N#Cc1ccc2c(c1)C(=O)c1c-2n(CCCN=[N+]=[N-])c(=O)c2cc([N+](=O)[O-])ccc12 please
Response: > 50100 nM

Query: Entry COc1ccc2c(c1)C(=O)c1c-2n(CCCN=[N+]=[N-])c(=O)c2cc([N+](=O)[O-])ccc12 please
Response: < 1 nM

Query: Entry COc1ccc2c(c1)C(=O)c1c-2n(CCCN)c(=O)c2cc([N+](=O)[O-])ccc12 please
Response: < 10 nM

Query: Entry Cc1ccc2c(c1)C(=O)c1c-2n(CCCBr)c(=O)c2cc([N+](=O)[O-])ccc12 please
Response: > 100000 nM

* * *

test system: DU-145; experiment: Cytotoxicity against human DU145 cells; type: functional
endpoint_name: GI50 (nM)
Just the number in nM, nothing appended.

Query: I have this compound here, [N-]=[N+]=NCCCn1c2c(c3ccc([N+](=O)[O-])cc3c1=O)C(=O)c1cc(F)ccc1-2 , and I need its recorded GI50.
Response: 437

Query: Entry COc1cc2c3c(n(CCCN)c(=O)c2cc1OC)-c1ccc(F)cc1C3=O please
Response: 575

Query: Entry NCCCn1c2c(c3ccc([N+](=O)[O-])cc3c1=O)C(=O)c1cc(-c3ccccc3)ccc1-2 please
Response: 200

* * *

Assign GI50 to each entry below.
system: UACC-62; assay: Cytotoxicity against human UACC62 cells; format: functional

Query: Record lookup: for UACC-62, what GI50 belongs to [N-]=[N+]=NCCCn1c2c(c3ccc([N+](=O)[O-])cc3c1=O)C(=O)c1cc(Br)ccc1-2 ?
Response: > 100000 nM

Query: Entry NCCCn1c2c(c3ccc([N+](=O)[O-])cc3c1=O)C(=O)c1cc(Br)ccc1-2 please
Response: < 10 nM

Query: Entry NCCCn1c2c(c3ccc([N+](=O)[O-])cc3c1=O)C(=O)c1cc(I)ccc1-2 please
Response: < 10 nM

* * *

Assign GI50 to each entry below.
tested on: DU-145; experiment: Cytotoxicity against human DU145 cells; format: functional
Just the number in µM, nothing appended.

Query: I have this compound here, COc1cc2c3c(n(CCCCl)c(=O)c2cc1OC)-c1ccc(C#N)cc1C3=O , and I need its recorded GI50.
Response: 10.7

Query: Entry N#Cc1ccc2c(c1)C(=O)c1c-2n(CCCN=[N+]=[N-])c(=O)c2cc([N+](=O)[O-])ccc12 please
Response: 7.08

Query: Entry CCc1ccc2c(c1)C(=O)c1c-2n(CCCN)c(=O)c2cc([N+](=O)[O-])ccc12 please
Response: 0.776

Query: Entry COc1cc2c3c(n(CCCN=[N+]=[N-])c(=O)c2cc1OC)-c1ccc([N+](=O)[O-])cc1C3=O please
Response: 34.7

Query: Entry Cc1ccc2c(c1)C(=O)c1c-2n(CCCN)c(=O)c2cc([N+](=O)[O-])ccc12 please
Response: 0.115

Query: Entry COc1cc2c3c(n(CCCN=[N+]=[N-])c(=O)c2cc1OC)-c1ccc(C#N)cc1C3=O please
Response: 33.9

Query: Entry Cc1ccc2c(c1)C(=O)c1c-2n(CCCBr)c(=O)c2cc([N+](=O)[O-])ccc12 please
Response: 50.1

Query: Entry COc1cc2c3c(n(CCCBr)c(=O)c2cc1OC)-c1ccc(NC(C)=O)cc1C3=O please
Response: 4.68

Query: Entry CS(=O)(=O)c1ccc2c(c1)C(=O)c1c-2n(CCCBr)c(=O)c2cc([N+](=O)[O-])ccc12 please
Response: 6.31

Query: Entry O=C1c2cc(Br)ccc2-c2c1c1ccc([N+](=O)[O-])cc1c(=O)n2CCCCl please
Response: 0.214

Query: Entry CSc1ccc2c(c1)C(=O)c1c-2n(CCCN=[N+]=[N-])c(=O)c2cc([N+](=O)[O-])ccc12 please
Response: 1.15

Query: Entry COc1cc2c3c(n(CCCN=[N+]=[N-])c(=O)c2cc1OC)-c1ccc(N)cc1C3=O please
Response: 0.059

Measured values drawn from ChEMBL document CHEMBL1148751 for this set.
